target: IMP-1 (Serratia marcescens, UniProt P52699); assay: biochemical; type: biochemical; settings: IMP-1 enzyme, CCF2-FA fluorescence assay; read-out: IMP-1 IC50
Sequence (P52699 whole entry, looked up): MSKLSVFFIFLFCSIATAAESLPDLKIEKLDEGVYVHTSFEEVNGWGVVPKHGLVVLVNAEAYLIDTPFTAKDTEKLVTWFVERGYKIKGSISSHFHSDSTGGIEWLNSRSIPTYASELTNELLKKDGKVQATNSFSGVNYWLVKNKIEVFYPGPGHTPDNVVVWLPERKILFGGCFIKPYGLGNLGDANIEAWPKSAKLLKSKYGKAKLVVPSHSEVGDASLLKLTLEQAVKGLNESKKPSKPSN
pIC50: −log10 of the molar value.
Decide by pIC50: equal to or exceeding 7 means YES, less means NO.

Before answering, review these 2 worked examples.
>  <MOLECULE>
NS(=O)(=O)c1c(C(F)(F)F)ccc(-c2ccc(C3CNC3)cc2)c1-c1nn[nH]n1

>  <LABEL CLASS>
YES

$$$$
>  <MOLECULE>
CC(NCc1ccc(-c2cccc(S(N)(=O)=O)c2-c2nnn[nH]2)cc1)C(=O)O (centres unmarked)

>  <LABEL CLASS>
NO

$$$$

Query: Assess whether reported pIC50 for CN1CCC(NCc2ccc(-c3cccc(S(N)(=O)=O)c3-c3nnn[nH]3)cc2)C1 (centres unmarked) sits at 7 or higher.
Response: NO

Query: Assess whether reported pIC50 for NS(=O)(=O)c1cccc(-c2ccc(CN3CCC(CCO)C3)cc2)c1-c1nnn[nH]1 (centres unmarked) sits at 7 or higher.
Response: NO

Query: Assess whether reported pIC50 for "NS(=O)(=O)c1cccc(-c2ccc(CO)nc2)c1-c1nnn[nH]1" sits at 7 or higher.
Response: NO

Query: Assess whether reported pIC50 for "NC(=O)Cc1ccc(-c2cccc(S(N)(=O)=O)c2-c2nnn[nH]2)cc1" sits at 7 or higher.
Response: YES

Query: Assess whether reported pIC50 for "NS(=O)(=O)c1cccc(-c2ccc(CNCCc3c[nH]cn3)cc2)c1-c1nnn[nH]1" sits at 7 or higher.
Response: NO

###

target: NDM-1 (Klebsiella pneumoniae, UniProt C7C422); test: biochemical; assay type: biochemical; conditions: fluorescence assay with CCF2-FA substrate; read-out: NDM-1 IC50
Sequence (C7C422 whole entry, looked up, species assumed): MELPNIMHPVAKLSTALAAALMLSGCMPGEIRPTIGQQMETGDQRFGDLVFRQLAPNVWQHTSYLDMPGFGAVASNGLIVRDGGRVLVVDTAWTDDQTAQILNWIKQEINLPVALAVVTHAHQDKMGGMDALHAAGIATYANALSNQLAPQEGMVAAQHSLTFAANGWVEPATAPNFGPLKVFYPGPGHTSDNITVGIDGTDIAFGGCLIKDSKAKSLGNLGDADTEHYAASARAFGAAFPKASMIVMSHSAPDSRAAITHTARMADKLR
MEASURED QUANTITY: IC50 (nM)
Quick note: give the figure in nM, leave out the unit.

>  <COMPOUND>
CN(C)c1ccc(C(F)(F)F)c(S(N)(=O)=O)c1-c1nnn[nH]1 [Example 784]

>  <MEASUREMENT TARGET>
NDM-1 (Klebsiella pneumoniae, UniProt C7C422)

>  <REPORTED MEASUREMENT>
41.7

$$$$
>  <COMPOUND>
NS(=O)(=O)c1cccc(C2=CCOCC2)c1-c1nnn[nH]1 [Example 140]

>  <MEASUREMENT TARGET>
NDM-1 (Klebsiella pneumoniae, UniProt C7C422)

>  <REPORTED MEASUREMENT>
7.68

$$$$
>  <COMPOUND>
NS(=O)(=O)c1c(C(F)(F)F)ccc(N2CCC(C3CCNCC3)CC2)c1-c1nnn[nH]1 [Example 779]

>  <MEASUREMENT TARGET>
NDM-1 (Klebsiella pneumoniae, UniProt C7C422)

>  <REPORTED MEASUREMENT>
6.42

$$$$
>  <COMPOUND>
NS(=O)(=O)c1cccc(-c2cnc(NC3CCCC3)nc2)c1-c1nnn[nH]1 [Example 124]

>  <MEASUREMENT TARGET>
NDM-1 (Klebsiella pneumoniae, UniProt C7C422)

>  <REPORTED MEASUREMENT>
4.34

$$$$
>  <COMPOUND>
NS(=O)(=O)c1cccc(-c2c[nH]c3nccnc23)c1-c1nn[nH]n1 [Example 104]

>  <MEASUREMENT TARGET>
NDM-1 (Klebsiella pneumoniae, UniProt C7C422)

>  <REPORTED MEASUREMENT>
16.8

$$$$
>  <COMPOUND>
NS(=O)(=O)c1cccc(-c2ccc3c(c2)C(=O)NC3)c1-c1nn[nH]n1 [Example 53]

>  <MEASUREMENT TARGET>
NDM-1 (Klebsiella pneumoniae, UniProt C7C422)

>  <REPORTED MEASUREMENT>
4.41

$$$$

// switching to the query compound
Recorded IC50 (compound NS(=O)(=O)c1nccc(-c2ccc3c(c2)OCC(=O)N3)c1-c1nn[nH]n1 [Example 205] ): 14.3

###

Recorded IC50 for the following compounds
target: VIM-1 (Pseudomonas aeruginosa (strain ATCC 15692 / DSM 22644 / CIP 104116 / JCM 14847 / LMG 12228 / 1C / PRS 101 / PAO1), UniProt A0A0F7KYQ8); assay: Enzyme activity: determination of IC50, fluorescence assay with CCF2-FA substrate (VIM-1); assay type: biochemical; conditions: fluorescence assay with CCF2-FA substrate; read-out: VIM-1 IC50
Quick note: give the figure in nM, leave out the unit.

Example entries and their recorded answers appear below.
>  <COMPOUND>
CS(=O)(=O)CCn1cc(-c2cccc(S(N)(=O)=O)c2-c2nn[nH]n2)cn1

>  <REPORTED MEASUREMENT>
937

$$$$
>  <COMPOUND>
CC(C)n1nccc1-c1cccc(S(N)(=O)=O)c1-c1nn[nH]n1

>  <REPORTED MEASUREMENT>
962

$$$$
>  <COMPOUND>
NS(=O)(=O)c1nccc(N2CCC(N3CCOCC3)CC2)c1-c1nnn[nH]1

>  <REPORTED MEASUREMENT>
945

$$$$

// switching to the query compound
Recorded IC50 (compound CC(c1ccc(-c2cccc(S(N)(=O)=O)c2-c2nn[nH]n2)cc1)N1CCOCC1 (stereo not shown) ): 196

###

target: VIM-1 (Pseudomonas aeruginosa (strain ATCC 15692 / DSM 22644 / CIP 104116 / JCM 14847 / LMG 12228 / 1C / PRS 101 / PAO1)); assay: Enzyme activity: determination of IC50, fluorescence assay with CCF2-FA substrate (VIM-1); format: biochemical; details: fluorescence assay with CCF2-FA substrate; read-out: VIM-1 IC50
Recorded pIC50 for the following compounds
// pIC50 is dimensionless: -log10 of concentration (M)

>  <COMPOUND>
NS(=O)(=O)c1cccc(-c2cscn2)c1-c1nn[nH]n1

>  <pIC50>
6.30

$$$$
>  <COMPOUND>
COc1cccc(-c2cccc(S(N)(=O)=O)c2-c2nn[nH]n2)n1

>  <pIC50>
6.69

$$$$
>  <COMPOUND>
NS(=O)(=O)c1nccc(N2CCC(Cn3ccnc3)CC2)c1-c1nnn[nH]1

>  <pIC50>
7.01

$$$$
>  <COMPOUND>
NS(=O)(=O)c1ccnc(-c2ccc(CO)cc2)c1-c1nnn[nH]1

>  <pIC50>
5.38

$$$$
>  <COMPOUND>
NS(=O)(=O)c1cccc(C2CCCC2)c1-c1nnn[nH]1

>  <pIC50>
6.55

$$$$

Recorded pIC50 (compound "NS(=O)(=O)c1nccc(NCCc2ccccc2)c1-c1nnn[nH]1" ): 6.62

Recorded pIC50 (compound "NS(=O)(=O)c1cccc(-c2cnn3c2CCCC3)c1-c1nn[nH]n1" ): 6.71

###

target: NDM-1 (Klebsiella pneumoniae); assay: biochemical; assay type: biochemical; details: NDM-1 enzyme, CCF2-FA fluorescence assay; read-out: NDM-1 IC50
Recorded pIC50 for the following molecules
// pIC50 is dimensionless: -log10 of concentration (M)

>  <RECORD SMILES>
NC(=O)CNCc1ccc(-c2cccc(S(N)(=O)=O)c2-c2nnn[nH]2)cc1

>  <MEASURED QUANTITY>
pIC50

>  <REPORTED MEASUREMENT>
8.29

$$$$
>  <RECORD SMILES>
NS(=O)(=O)c1c(C(F)(F)F)ccc(C2CCCC2)c1-c1nnn[nH]1

>  <MEASURED QUANTITY>
pIC50

>  <REPORTED MEASUREMENT>
8.59

$$$$
>  <RECORD SMILES>
Cc1ccc(-c2cccc(S(N)(=O)=O)c2-c2nnn[nH]2)cn1

>  <MEASURED QUANTITY>
pIC50

>  <REPORTED MEASUREMENT>
7.93

$$$$
>  <RECORD SMILES>
NS(=O)(=O)c1c(CC(F)(F)F)ccc(-c2ccc(C3CCNCC3)cc2)c1-c1nn[nH]n1

>  <MEASURED QUANTITY>
pIC50

>  <REPORTED MEASUREMENT>
7.65

$$$$

// switching to the query molecule
Recorded pIC50 (molecule "Cc1ccc(-c2ccc(C(F)(F)F)c(S(N)(=O)=O)c2-c2nn[nH]n2)cc1" ): 8.70

###

target: NDM-1 (Klebsiella pneumoniae); experiment: biochemical; assay type: biochemical; conditions: NDM-1 enzyme, CCF2-FA substrate; read-out: NDM-1 IC50
pIC50: −log10 of the molar value.
Decide by pIC50: equal to or exceeding 9 means Satisfied, less means Not satisfied.

>  <COMPOUND>
Nc1nc2ccc(-c3ccc(C(F)(F)F)c(S(N)(=O)=O)c3-c3nnn[nH]3)cc2s1

>  <LABEL CLASS>
Satisfied

$$$$

Lab note: next compound to report on.
Query: Assess whether reported pIC50 for NCC1(N)CCC(c2ccc(C(F)(F)F)c(S(N)(=O)=O)c2-c2nnn[nH]2)CC1 (centres unmarked) sits at 9 or higher.
Response: Not satisfied
